- TARGET DESC: recombinant human Myt1 (full length PKMYT1) (Homo sapiens (Human), UniProt Q99640)
- Sequence (Q99640 whole entry): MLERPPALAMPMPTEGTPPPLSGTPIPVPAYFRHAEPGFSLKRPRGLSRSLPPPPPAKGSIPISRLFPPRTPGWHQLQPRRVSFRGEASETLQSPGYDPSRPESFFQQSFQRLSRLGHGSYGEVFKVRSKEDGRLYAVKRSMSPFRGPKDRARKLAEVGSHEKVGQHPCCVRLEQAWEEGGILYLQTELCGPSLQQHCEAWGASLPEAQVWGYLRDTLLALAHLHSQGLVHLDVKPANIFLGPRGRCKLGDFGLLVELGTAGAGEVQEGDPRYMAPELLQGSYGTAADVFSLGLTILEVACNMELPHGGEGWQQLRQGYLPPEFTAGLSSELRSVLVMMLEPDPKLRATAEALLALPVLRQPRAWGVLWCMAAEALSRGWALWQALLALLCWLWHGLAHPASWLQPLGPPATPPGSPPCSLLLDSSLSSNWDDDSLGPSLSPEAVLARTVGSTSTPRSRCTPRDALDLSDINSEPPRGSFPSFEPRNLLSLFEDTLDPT
- EXPERIMENTAL PROTOCOL: Recombinant human Myt1 kinase assay (ADP-Glo)
- EXPERIMENTAL SETUP: 10 μM ATP
MEASUREMENT NAME: IC50 (nM)
Answer with a number only, understood to be in nM.

Examples with answers:
COMPOUND	IC50 (nM)
Cc1ccc2[nH]ncc2c1-c1cc(-c2cc(Cl)ccn2)nc(C(N)=O)c1N	12
Cc1ccc2[nH]ncc2c1-c1cc(-c2ccnc(OC[C@H](N)c3ccccc3)n2)nc(C(N)=O)c1N	3
Cc1ccc(O)c(C)c1-c1cc(-c2nccc3ccccc23)nc(C(N)=O)c1N	55
Cc1ccc2[nH]ncc2c1-c1cc(-c2ccnc(OC3CCOC3)n2)nc(C(N)=O)c1N (stereo not shown)	12
CO[C@@H](COc1nccc(-c2cc(-c3c(C)ccc4[nH]ncc34)c(N)c(C(N)=O)n2)n1)c1ccccc1 (atropisomer, axis not shown)	1740
Cc1ccc(-c2cc(-c3c(C)ccc(O)c3C)c(N)c(C(N)=O)n2)nc1	4

For the compound shown here, Cc1ccc2[nH]ncc2c1-c1cc(-c2ccnc(N3CCC(O)CC3)n2)nc(C(N)=O)c1N , give the reported IC50.
4

###

- TARGET DESC: recombinant human Myt1 (full length PKMYT1) (Homo sapiens (Human))
- EXPERIMENTAL PROTOCOL: Recombinant human Myt1 kinase assay (ADP-Glo)
- EXPERIMENTAL SETUP: 10 μM ATP
A collection of compounds and their measured pIC50
On this scale, pIC50 is minus log10 of a concentration expressed in M (mol/L).

Examples with answers:
COMPOUND	MEASUREMENT NAME	READOUT VALUE
Cc1ccc2[nH]ncc2c1-c1nc(-c2ccccc2Nc2ncccn2)nc(C(N)=O)c1N [Compound 449]	pIC50	8.15
Cc1ccc2[nH]ncc2c1-c1cc(-c2cccc(Oc3cccc(N4CCCC4)c3)n2)nc(C(N)=O)c1N [Compound 182]	pIC50	7.82
CO[C@H](COc1nccc(-c2cc(-c3c(C)ccc4[nH]ncc34)c(N)c(C(N)=O)n2)n1)c1ccccc1 (atropisomer, axis not shown) [Compound 309]	pIC50	8.30
Cc1ccc2[nH]ncc2c1-c1nc(-c2cc(F)ccc2NS(=O)(=O)C2CC2)nc(C(N)=O)c1N [Compound 481]	pIC50	8.70

Fill in the recorded pIC50 for this compound, with recombinant human Myt1 (full length PKMYT1) (Homo sapiens (Human)) as test system: Cc1ccc2[nH]ncc2c1-c1nc(-c2cccnc2Nc2ccccc2)nc(C(N)=O)c1N [Compound 607]
8.22

Fill in the recorded pIC50 for this compound, with recombinant human Myt1 (full length PKMYT1) (Homo sapiens (Human)) as test system: Cc1ccc2[nH]ncc2c1-c1cc(-c2cccc(OC[C@H](N)C(C)C)n2)nc(C(N)=O)c1N (atropisomer, axis not shown) [Compound 345]
5.99

Fill in the recorded pIC50 for this compound, with recombinant human Myt1 (full length PKMYT1) (Homo sapiens (Human)) as test system: Cc1ccc2[nH]ncc2c1-c1nc(-c2ccc(Cl)cc2NC(=O)C2(C)CC2)nc(C(N)=O)c1N [Compound 438]
8.40

###

- TARGET DESC: recombinant human Myt1 (full length PKMYT1) (Homo sapiens (Human))
- EXPERIMENTAL PROTOCOL: Recombinant human Myt1 kinase assay (ADP-Glo)
- EXPERIMENTAL SETUP: 10 μM ATP
MEASUREMENT NAME: pIC50
On this scale, pIC50 is minus log10 of a concentration expressed in M (mol/L).

MOLECULE	TARGET DESC	pIC50
Cc1ccc(O)c(C)c1-c1cc(-c2cccc(OC3CCOCC3)n2)nc(C(N)=O)c1N [Compound 57]	recombinant human Myt1 (full length PKMYT1) (Homo sapiens (Human))	8.15
Cc1ccc2[nH]ncc2c1-c1cc(-c2cccc(OCCN3CCNCC3)n2)nc(C(N)=O)c1N	recombinant human Myt1 (full length PKMYT1) (Homo sapiens (Human))	7.89

For the molecule shown here, Cc1ccc2[nH]ncc2c1-c1nc(-c2cn(C)nc2NC(C)C)nc(C(N)=O)c1N , give the reported pIC50.
8.40

For the molecule shown here, Cc1ccc2[nH]ncc2c1-c1nc(-c2cccc(OCC#N)c2)nc(C(N)=O)c1N , give the reported pIC50.
8.10

For the molecule shown here, COC(COc1nccc(-c2cc(-c3c(C)ccc4[nH]ncc34)c(N)c(C(N)=O)n2)n1)C1CC1 (centres unmarked) , give the reported pIC50.
8.30

For the molecule shown here, Cc1ccc(O)c(C)c1-c1cc(-c2ccns2)nc(C(N)=O)c1N , give the reported pIC50.
8.52

For the molecule shown here, Cc1ccc2[nH]ncc2c1-c1cc(-c2cncs2)nc(C(N)=O)c1N [Compound 98] , give the reported pIC50.
5.71

For the molecule shown here, Cc1ccc2[nH]ncc2c1-c1cc(-c2ccnc(NCCCO)n2)nc(C(N)=O)c1N , give the reported pIC50.
7.70

For the molecule shown here, COCCOc1cccc(-c2nc(C(N)=O)c(N)c(-c3c(C)ccc4[nH]ncc34)n2)c1 , give the reported pIC50.
7.39

For the molecule shown here, Cc1ccc2[nH]ncc2c1-c1nc(-c2ccc(OC3CC3)cc2)nc(C(N)=O)c1N , give the reported pIC50.
6.92

For the molecule shown here, Cc1ccc2[nH]ncc2c1-c1cc(-c2ccnc(O[C@@H](C)c3ncccn3)n2)nc(C(N)=O)c1N (atropisomer, axis not shown) , give the reported pIC50.
8.30

For the molecule shown here, Cc1ccc2[nH]ncc2c1-c1nc(-c2cccc(C(C)(C)C#N)c2)nc(C(N)=O)c1N , give the reported pIC50.
7.57

For the molecule shown here, Cc1ccc2[nH]ncc2c1-c1cc(-c2ccc(-c3nccs3)nc2)nc(C(N)=O)c1N , give the reported pIC50.
7.33

For the molecule shown here, Cc1cnc(-c2nc(C(N)=O)c(N)c(-c3cc(O)ccc3C)n2)s1 , give the reported pIC50.
7.36

For the molecule shown here, Cc1ccc2[nH]ncc2c1-c1nc(-c2ccccc2NC(C)C)nc(C(N)=O)c1N , give the reported pIC50.
8.40

For the molecule shown here, Cc1ccc2[nH]ncc2c1-c1cc(-c2ccnc(OCCn3cccn3)n2)nc(C(N)=O)c1N , give the reported pIC50.
7.85

For the molecule shown here, CNc1ccc(-c2nc(C(N)=O)c(N)c(-c3c(C)ccc4[nH]ncc34)n2)cc1 , give the reported pIC50.
7.36

For the molecule shown here, Cc1ccc(O)c(C)c1-c1cc(-c2nc3ccccc3s2)nc(C(N)=O)c1N [Compound 58] , give the reported pIC50.
8.30

For the molecule shown here, Cc1ccc2[nH]ncc2c1-c1nc(-c2cccc(Oc3ccc(F)cc3)c2)nc(C(N)=O)c1N , give the reported pIC50.
7.21

For the molecule shown here, Cc1ccc2[nH]ncc2c1-c1nc(-c2cc(F)c(F)cc2NC(=O)C2(C)CCN(C)C2)nc(C(N)=O)c1N (centres unmarked) , give the reported pIC50.
8.15

For the molecule shown here, Cc1ccc(O)c(C)c1-c1cc(-c2ncc(F)cc2F)nc(C(N)=O)c1N , give the reported pIC50.
8.15

For the molecule shown here, Cc1ccc(O)c(C)c1-c1cc(-c2cc3ccccc3n2C)nc(C(N)=O)c1N , give the reported pIC50.
7.21
